# target.desc: T1, human MSLN-FL-his protein (human, UniProt Q13421 296-580)
# T1 construct: Made in HEK293E cells, purified on nickel column; it is put last here; also called human MSLN full-length protein; hMSLN-FL-his; not shown: His tag
# test.protocol: ELISA on coated antigen, antibody 1 nM
Let's look at some binders and their measured OD450.
Report the value in OD with no unit label.

A selection of reference data follows.
>>> assay_value("S009-F8-27.1 (antibody, human IgG1, kappa, V domains shown, Human-murine chimeric antibody, human IgG1 heavy and kappa light constant regions) VH: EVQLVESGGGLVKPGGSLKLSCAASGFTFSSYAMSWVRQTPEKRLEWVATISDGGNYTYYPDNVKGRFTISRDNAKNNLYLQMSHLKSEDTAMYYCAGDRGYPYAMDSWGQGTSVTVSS VL: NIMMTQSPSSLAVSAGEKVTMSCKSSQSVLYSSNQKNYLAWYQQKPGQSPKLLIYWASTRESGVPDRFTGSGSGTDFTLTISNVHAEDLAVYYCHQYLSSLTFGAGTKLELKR")
2.23
>>> assay_value("S009-F8-33.12 (antibody, human IgG1, kappa, V domains shown, Human-murine chimeric antibody, human IgG1 heavy and kappa light constant regions) VH: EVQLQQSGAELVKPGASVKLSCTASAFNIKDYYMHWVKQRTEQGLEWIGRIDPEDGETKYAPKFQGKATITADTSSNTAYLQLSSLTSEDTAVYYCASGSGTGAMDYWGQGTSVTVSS VL: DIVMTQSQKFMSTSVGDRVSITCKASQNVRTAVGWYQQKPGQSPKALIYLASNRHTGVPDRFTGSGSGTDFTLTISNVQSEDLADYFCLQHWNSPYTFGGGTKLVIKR")
2.57
>>> assay_value("S009-F8-5.15 (antibody, human IgG1, kappa, V domains shown, Human-murine chimeric antibody, human IgG1 heavy and kappa light constant regions) VH: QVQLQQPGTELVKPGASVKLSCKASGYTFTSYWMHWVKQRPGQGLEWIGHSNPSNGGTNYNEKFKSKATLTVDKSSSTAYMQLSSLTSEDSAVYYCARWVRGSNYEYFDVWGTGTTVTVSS VL: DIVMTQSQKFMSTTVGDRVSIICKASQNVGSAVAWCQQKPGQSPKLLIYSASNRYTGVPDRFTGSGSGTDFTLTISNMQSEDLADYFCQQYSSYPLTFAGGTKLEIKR")
2.51
>>> assay_value("S009-F8-28.23 (antibody, human IgG1, kappa, V domains shown, Human-murine chimeric antibody, human IgG1 heavy and kappa light constant regions) VH: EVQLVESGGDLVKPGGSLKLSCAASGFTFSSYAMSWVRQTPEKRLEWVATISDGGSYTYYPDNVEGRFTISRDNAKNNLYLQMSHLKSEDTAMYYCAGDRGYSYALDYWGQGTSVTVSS VL: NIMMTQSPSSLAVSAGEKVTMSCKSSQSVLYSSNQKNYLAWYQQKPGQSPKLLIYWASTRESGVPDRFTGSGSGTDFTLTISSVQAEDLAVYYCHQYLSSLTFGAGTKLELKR")
2.63

# context switch: different binder, same OD450
Recorded result, S009-F8-22.23 (antibody, human IgG1, kappa, V domains shown, Human-murine chimeric antibody, human IgG1 heavy and kappa light constant regions) VH: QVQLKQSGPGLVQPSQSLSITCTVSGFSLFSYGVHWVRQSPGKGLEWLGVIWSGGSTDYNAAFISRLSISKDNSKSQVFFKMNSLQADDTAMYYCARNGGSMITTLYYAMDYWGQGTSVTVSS VL: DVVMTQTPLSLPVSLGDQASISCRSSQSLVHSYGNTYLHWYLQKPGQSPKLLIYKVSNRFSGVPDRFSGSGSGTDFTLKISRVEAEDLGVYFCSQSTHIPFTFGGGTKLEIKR , OD450: 2.49
